# Plant response rating, Wheat annotations
System: wheat (Triticum aestivum)
Assay: Test B pre-/postemergence plant response
Format: in vivo
Settings: Postemergence, 250 g ai/ha; scale 0 to 100 (0 no effect, 100 complete control); 13 to 15 days
The answer should be a number; do not append a unit.

> print(dat)
                                   compound  assay.result
1  COCCCn1c(-c2cccc(F)c2)ncc(C(=O)C2=C(O)C3CCC(C3)C2=O)c1=O (stereo not shown) [Compound 238]            80

Specify measured Plant response rating, Wheat for O=C1CCCC(O)=C1C(=O)c1cnc(-c2cc(F)cc(F)c2)n(C2CCCCC2)c1=O [Compound 181] . 70

Annotate the compound O=C1CCCC(O)=C1C(=O)c1cnc(-c2cccc(F)c2)n(C2CCCCC2)c1=O [Compound 187] with its measured Plant response rating, Wheat. 5

Given CCc1ccc(-n2c(-c3ccccc3)ncc(C(=O)C3=C(O)CCCC3=O)c2=O)cc1 [Compound 219] , respond with its Plant response rating, Wheat. 50

Just for reference, patent US8952024B2 is where these values come from.
